Angle de spatule overview
experiment: flowability (coulabilité) test on the Hosokawa combined powder tester; type: physicochemical; conditions: combiné Hosokawa
A number alone suffices; assume °.

# input compound: CC(=O)Nc1ccc(O)cc1 [Aggloméré, paracétamol] ; wanted: its Angle de spatule 41

# input compound: CC(=O)Nc1ccc(O)cc1 [Cristallisé, paracétamol] ; wanted: its Angle de spatule 39

# input compound: CC(=O)Nc1ccc(O)cc1 [Broyé super fin, paracétamol] ; wanted: its Angle de spatule 76

# input compound: CC(=O)Nc1ccc(O)cc1 [Broyé, paracétamol] ; wanted: its Angle de spatule 74

====

experiment: dissolution of suspensions of 1, 2 and 3 g in 200 cm3 of water, stirred at room temperature; format: physicochemical; conditions: Concentration 15 g/l (3 g in 200 cm3 water), insoluble filtered, dried and weighed after at most 10 minutes
PROPERTY_NAME: Pourcentage dissous

>>> df
                                   molecule  reported_result
0  CC(=O)Nc1ccc(O)cc1 [Broyé super fin, paracétamol]             > 98
1  CC(=O)Nc1ccc(O)cc1 [Cristallisé, paracétamol]               83
2  CC(=O)Nc1ccc(O)cc1 [Aggloméré, paracétamol]             > 98

// below: Pourcentage dissous requested for another molecule
# input molecule: CC(=O)Nc1ccc(O)cc1 [Broyé, paracétamol] ; wanted: its Pourcentage dissous > 98

====

Densité (non tassée) overview
test: flowability (coulabilité) test on the Hosokawa combined powder tester; type: physicochemical; conditions: combiné Hosokawa
Don't forget the unit after the number, please.

>>> print(df.to_string())
                                   molecule  reported_result
0  CC(=O)Nc1ccc(O)cc1 [Aggloméré, paracétamol]        400 kg/m3
1   CC(=O)Nc1ccc(O)cc1 [Broyé, paracétamol]        280 kg/m3
2  CC(=O)Nc1ccc(O)cc1 [Cristallisé, paracétamol]        700 kg/m3

# input molecule: CC(=O)Nc1ccc(O)cc1 [Broyé super fin, paracétamol] ; wanted: its Densité (non tassée) 150 kg/m3

====

Pourcentage dissous overview
assay: dissolution of suspensions of 1, 2 and 3 g in 200 cm3 of water, stirred at room temperature; assay type: physicochemical; conditions: Concentration 10 g/l (2 g in 200 cm3 water), insoluble filtered, dried and weighed after at most 10 minutes
Lab note: jot down the number only; don't add units.

Solved cases (3 shown):
>>> print(df.to_string())
                                   compound  reported_result
0  CC(=O)Nc1ccc(O)cc1 [Aggloméré, paracétamol]              100
1  CC(=O)Nc1ccc(O)cc1 [Broyé super fin, paracétamol]              100
2  CC(=O)Nc1ccc(O)cc1 [Cristallisé, paracétamol]               85

# input compound: CC(=O)Nc1ccc(O)cc1 [Broyé, paracétamol] ; wanted: its Pourcentage dissous 100

====

assay: flowability (coulabilité) test on the Hosokawa combined powder tester; format: physicochemical; details: combiné Hosokawa
PROPERTY_NAME: Angle de talus (°)
A number alone suffices; assume °.

Solved cases (2 shown):
>>> print(df.to_string())
                                   compound  reported_result
0  CC(=O)Nc1ccc(O)cc1 [Broyé super fin, paracétamol]               60
1  CC(=O)Nc1ccc(O)cc1 [Cristallisé, paracétamol]               39

# input compound: CC(=O)Nc1ccc(O)cc1 [Broyé, paracétamol] ; wanted: its Angle de talus 56

# input compound: CC(=O)Nc1ccc(O)cc1 [Aggloméré, paracétamol] ; wanted: its Angle de talus 37
